Experimental endpoint: CO2 permeability (Barrer)

Known CO2 permeability results, listed for orientation:
*NCC(C)(C)CC(C)CCNC(=O)c1ccc(C(*)=O)cc1 (repeat unit)    0.33
*c1ccc(C(C)(C)c2ccc(N3C(=O)c4ccc(C(c5ccc6c(c5)C(=O)N(*)C6=O)(C(F)(F)F)C(F)(F)F)cc4C3=O)cc2)cc1 (repeat unit)    30
*/C(C)=C(/*)[Si](C)(C)CCC (repeat unit)    230
*/C=C/C1CCC(*)C1 (repeat unit)    15.4

P: *c1ccc(C(C)(C)c2ccc(N3C(=O)c4ccc(Oc5ccc(Oc6ccc7c(c6)C(=O)N(*)C7=O)cc5)cc4C3=O)cc2)cc1 (repeat unit)
Q: *c1ccc(Cc2ccc(N3C(=O)c4ccc(C(c5ccc6c(c5)C(=O)N(*)C6=O)(C(F)(F)F)C(F)(F)F)cc4C3=O)c(O)c2)cc1O (repeat unit)
R: *c1ccc2c3c(ccc2c1)OC1CC3c2c(ccc3cc(N4C(=O)c5ccc(C(c6ccc7c(c6)C(=O)N(*)C7=O)(C(F)(F)F)C(F)(F)F)cc5C4=O)ccc23)O1 (repeat unit)
# rank by CO2 permeability, ascending (min first) # format: label list in the order the request specifies P, Q, R

----------
Experimental endpoint: CH4 permeability (Barrer)

// known answers, use as guide
*Oc1c(C)cc(*)c(C(=O)c2ccc(C)cc2)c1C (repeat unit)    1.49
*c1ccc(N(c2ccc(N3C(=O)c4ccc(C(c5ccc6c(c5)C(=O)N(*)C6=O)(C(F)(F)F)C(F)(F)F)cc4C3=O)cc2)c2ccc(N(c3ccc(OC)cc3)c3ccc(OC)cc3)cc2)cc1 (repeat unit)    0.4
*Oc1ccc(C2(c3ccc(OC(=O)c4cc(C(*)=O)cc(C(C)(C)C)c4)cc3)OC(=O)c3ccccc32)cc1 (repeat unit)    1.16
*c1cc(C(=O)OCCC(F)(F)C(F)(F)C(F)(F)C(F)(F)C(F)(F)C(F)(F)F)cc(N2C(=O)c3ccc(Oc4ccc5c(c4)C(=O)N(*)C5=O)cc3C2=O)c1 (repeat unit)    0.36
*c1cc2c(cc1C)-c1cc(C)c(N3C(=O)c4ccc(S(=O)(=O)c5ccc6c(c5)C(=O)N(*)C6=O)cc4C3=O)cc1S2(=O)=O (repeat unit)    0.244
*Oc1ccc(C(C)(C)c2ccc(Oc3ccc(C(=O)c4ccc(C(C)(C)c5ccc(C(=O)c6ccc(*)cc6)cc5)cc4)cc3)cc2)cc1 (repeat unit)    0.22

A: *c1cc(C(c2ccc(C)c(-n3c(=O)c4cc5oc6cc7c(cc6oc5cc4c3=O)C3(CC(C)(C)c4cc5oc6cc8c(=O)n(*)c(=O)c8cc6oc5cc43)CC7(C)C)c2)(C(F)(F)F)C(F)(F)F)ccc1C (repeat unit)
B: *OC(=O)c1ccc(C(=O)Oc2ccc(C3(c4ccc(O*)c(C)c4)OC(=O)c4ccccc43)cc2C)cc1 (repeat unit)
Sorting by CH4 permeability in descending order, would A or B appear first? Respond with the label that goes with your answer. A

----------
Measured H2 permeability by item
The response must be a number in Barrer with no trailing unit.

Reference set, count: 5
*CC(O)CO* (repeat unit)    0.0228
*/C(C)=C(/*)[Si](C)(C)C (repeat unit)    15000
*Oc1ccc(Oc2cccc(*)c2C#N)c(-c2cc(C(F)(F)F)cc(C(F)(F)F)c2)c1 (repeat unit)    35
*CC(*)c1ccc([Si](C)(C)C)cc1 (repeat unit)    182
*C(C)=C(*)C(C)C (repeat unit)    5720

Here is the next item to consider.
If you can, please state the reported H2 permeability value of *CC1CC(*)OCO1 (repeat unit) . 0.93

----------
Experimental endpoint: CH4 permeability (Barrer)

I: *Oc1ccc(C2(c3ccc(Oc4ccc(S(=O)(=O)c5ccc(*)cc5)cc4)cc3)OC(=O)c3ccccc32)cc1 (repeat unit)
II: *C(=C(*)c1ccc2c(c1)C(C)(C)c1cc(Br)ccc1-2)c1ccccc1 (repeat unit)
III: *Oc1ccc(C(C)(C)c2ccc(Oc3ccc(C(=O)c4ccc(C(=O)c5ccc(*)cc5)cc4)cc3)cc2)cc1 (repeat unit)
IV: *c1c(C)cc2c(c1C)C1c3ccccc3C2c2cc(C)c(N3C(=O)c4ccc(C(c5ccc6c(c5)C(=O)N(*)C6=O)(C(F)(F)F)C(F)(F)F)cc4C3=O)c(C)c21 (repeat unit)
Order these molecules (above) by their CH4 permeability, from the smallest value upward. List each label, following the requested order. III, I, IV, II

----------
Experimental endpoint: N2 permeability (Barrer)

*Oc1ccc(S(=O)(=O)c2ccc(Oc3ccc(C(C)(c4ccccc4)c4ccc(*)cc4)cc3)cc2)cc1 (repeat unit)    0.278
*Oc1ccc(S(=O)(=O)c2ccc(-c3ccc(S(=O)(=O)c4ccc(Oc5ccc(C(C)(C)c6ccc(*)cc6)cc5)cc4)cc3)cc2)cc1 (repeat unit)    0.469
*Oc1c(C)cc(C(C)(C)c2cc(C)c(OC(*)=O)c(C)c2)cc1C (repeat unit)    1.1
*c1c(C)cc(C)c(N2C(=O)c3ccc(Oc4ccc(Oc5ccc6c(c5)C(=O)N(*)C6=O)cc4)cc3C2=O)c1C (repeat unit)    0.732
*c1cc2c(cc1O)C1(CC2(C)C)CC(C)(C)c2cc(N3C(=O)C4C(C3=O)C3(Br)C(Br)=C(Br)C4(Br)C4C(=O)N(*)C(=O)C43)c(O)cc21 (repeat unit)    5.3
*[Si](C)(C)CCCCCCCC[Si](*)(C)C (repeat unit)    76.2
*C(=C(*)c1ccc2c(c1)C(C)(C)CC2(C)C)c1cccc(F)c1 (repeat unit)    12000
*C(=C(*)c1ccc2c(c1)Cc1ccccc1-2)c1ccc([Si](C)(C)C)cc1 (repeat unit)    950
*Oc1c(C)cc(C(C)(C)c2cc(C)c(OC(=O)c3cc(C(*)=O)cc(C(C)(C)C)c3)c(C)c2)cc1C (repeat unit)    2.6
*Oc1c(C)cc(*)c(C(=O)c2ccc([N+](=O)[O-])cc2)c1C (repeat unit)    1.27

a: *=CC1CC(C=*)C(C(F)(F)F)(C(F)(F)F)C1(F)F (repeat unit)
b: *c1ccc2c3c(ccc2c1)OC1CC3c2c(ccc3cc(N4C(=O)c5ccc(C(c6ccc7c(c6)C(=O)N(*)C7=O)(C(F)(F)F)C(F)(F)F)cc5C4=O)ccc23)O1 (repeat unit)
c: *Oc1cc2c(cc1O*)C1(c3cc(C)c(C)cc3-2)c2cc(C)c(C)cc2-c2cc3c(cc21)Oc1c(C#N)c(*)c(*)c(C#N)c1O3 (repeat unit)
d: *Oc1ccc(C(C)(C)c2ccc(OC(*)=O)cc2)cc1 (repeat unit)
Hey, quick one: sort these by N2 permeability, largest value first please. To answer, write out the labels according to the requested order. c, a, b, d
(c: 658 Barrer, a: 10.7 Barrer, b: 1.1 Barrer, d: 0.3 Barrer)

----------
Experimental endpoint: CO2 permeability (Barrer)

*CC(*)c1ccc(C)cc1 (repeat unit)    29.8

1: *Oc1ccc(C(C)(C)c2ccc(Oc3ccc(C(=O)c4ccc(C(C)(C)c5ccc(C(=O)c6ccc(*)cc6)cc5)cc4)cc3)cc2)cc1 (repeat unit)
2: *Oc1ccc(C2(c3ccc(OC(=O)c4cc(C(*)=O)cc(C(C)(C)C)c4)cc3)OC(=O)c3ccccc32)cc1 (repeat unit)
3: *C(=C(*)c1cccc(O[Si](C)(C)C(C)(C)C)c1)c1ccc(C(C)(C)C)cc1 (repeat unit)
Order the records, beginning with the lowest CO2 permeability and ending with the highest. Answer format: the labels, in the requested order. 1, 2, 3
(1: 4.4 Barrer, 2: 23.8 Barrer, 3: 7200 Barrer)

----------
Experimental endpoint: N2 permeability (Barrer)

*C(C(=O)OC1CCCCC1)C(*)C(=O)OC(C)(C)C (repeat unit)    5
*CCC[Si](*)(C)C (repeat unit)    3
*Nc1cccc(NC(=O)c2ccc(C(c3ccc(C(*)=O)cc3)(C(F)(F)F)C(F)(F)F)cc2)c1 (repeat unit)    0.4

I: *Oc1ccc(S(=O)(=O)c2ccc(Oc3ccc(C(C)(C)c4ccc(*)cc4)cc3CN3C(=O)c4ccccc4C3=O)cc2)cc1 (repeat unit)
II: *CC(*)(C)C(=O)OCC(F)(F)C(F)(F)C(F)(F)C(F)(F)C(F)(F)C(F)(F)C(F)(F)F (repeat unit)
III: *c1ccc(C2(c3ccc(*)cc3)c3ccccc3-c3ccccc32)cc1 (repeat unit)
IV: *c1ccc(Oc2ccc(N3C(=O)c4ccc(S(=O)(=O)c5ccc6c(c5)C(=O)N(*)C6=O)cc4C3=O)cc2)cc1 (repeat unit)
V: *Oc1ccc(C2(c3ccc(Oc4ccc(S(=O)(=O)c5ccc(*)cc5)cc4)cc3)C3CC4CC(C3)CC2C4)cc1 (repeat unit)
Rank ascending by N2 permeability. Could you list the labels in the order requested? IV, I, V, III, II

----------
Experimental endpoint: CO2 permeability (Barrer)

*Oc1ccc(Oc2cccc(*)c2C#N)c(-c2cccc(C)c2)c1 (repeat unit)    1.9
*CC(*)(C)c1ccccc1 (repeat unit)    3

a: *Oc1ccc(S(=O)(=O)c2ccc(Oc3ccc(C(C)(c4ccccc4)c4ccc(*)cc4)cc3)cc2)cc1 (repeat unit)
b: *c1ccc(Oc2ccc(C(=O)c3ccc(Oc4ccc(C(*)(c5ccccc5)C(F)(F)F)cc4)cc3)cc2)cc1 (repeat unit)
Please indicate which item has the smaller measured CO2 permeability: a versus b Answer by stating the label of the chosen item. b
(b: 4.2 Barrer, a: 8.12 Barrer)
